- assay.notes: Acute toxicity (50% lethal dose) in mice
- Assay type: in vivo
- measurement.conditions: mouse, in vivo; mice, oral; read-out: Acute toxicity LD50, oral
For each record, write down the corresponding LD50 at 168 h.
A number alone suffices; assume mg/kg.

Problem: Please supply the value of reported LD50 at 168 h for the item CC[C@]12CCCN3CCc4c(n(c5ccccc45)[C@@](O)(C(=O)OC)C1)[C@@H]32 [Vincamine, reference compound]
Solution: 460

Problem: Entry CCC12C=C(C(=O)OC3CC(C)CC(C)(C)C3)n3c4c(c5ccccc53)CCN(CCC1)C42 (centres unmarked) needs its LD50 at 168 h filled in; supply it.
Solution: 2800
